B1: TRIM15 (parent)
chain: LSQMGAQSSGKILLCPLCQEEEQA

variants of: B1; assay: protein stability index of a GFP-peptide fusion (GPS, HEK-293T) (PSI 1-6); higher = more stable; conditions: c terminus: a fixed tail appended;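 note: lentivirally expressed fusions sorted by FACS into six bins by GFP to DsRed ratio, PSI derived from sequencing read proportions per bin multiplied by bin number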
Use satisfied when the recorded protein stability index is no lower than 3; use not satisfied when it is lower.

INSERT INTO assay_data (mutant_label, group_label) VALUES
  ('C18H', 'satisfied');

Query block: Has "E21M" a recorded protein stability index greater than or equal to 3?
Result block: not satisfied

Query block: Assess whether reported protein stability index for "K11Q" sits at 3 or higher.
Result block: satisfied

Query block: Does the reported protein stability index for "E22G" fall at or above the 3 mark?
Result block: satisfied

Query block: Is reported protein stability index greater than or equal to 3 here: "E21P"
Result block: satisfied

Query block: Would you say "L1H" shows protein stability index at minimum 3?
Result block: satisfied

Query block: Textbook exercise: given the entry "G10V" , state whether its protein stability index is greater than or equal to 3.
Result block: satisfied
